Just for reference, patent US4443436A is where these values come from.

Test system: Staphylococcus aureus X400
Test: MIC, standard agar-dilution assay, Staphylococcus aureus X400
Type: cell-based
Conditions: Staphylococcus aureus X400; methicillin-resistant strain; agar dilution
METRIC: MIC (µg/mL)

| COMPOUND | DATA_VALUE |
| --- | --- |
| CCC1OC(=O)CC(O)C(C)C(OC2OC(C)C(OC3CC(C)(O)C(O)C(C)O3)C(N(C)C)C2O)C(CCOc2ccccc2)CC(C)C(=O)C=CC(C)=CC1COC1OC(C)C(O)C(O)C1OC (centres unmarked) | 4 |
| CCC1OC(=O)CC(O)C(C)C(OC2OC(C)C(O)C(N(C)C)C2O)C(CCOc2cc(Cl)cc(Cl)c2)CC(C)C(=O)C=CC(C)=CC1COC1OC(C)C(O)C(OC)C1OC (centres unmarked) | 0.25 |
| CCC1OC(=O)CC(O)C(C)C(OC2OC(C)C(OC3CC(C)(O)C(O)C(C)O3)C(N(C)C)C2O)C(CCOc2ncnc3ccccc23)CC(C)C(=O)C=CC(C)=CC1COC1OC(C)C(O)C(OC)C1OC (centres unmarked) [Compound 19a] | 1 |
| CCC1OC(=O)CC(O)C(C)C(OC2OC(C)C(O)C(N(C)C)C2OC(C)=O)C(CCOc2ccccc2)CC(C)C(=O)C=CC(C)=CC1COC1OC(C)C(O)C(OC)C1OC (centres unmarked) | 0.5 |
| CCC1OC(=O)CC(O)C(C)C(OC2OC(C)C(O)C(N(C)C)C2O)C(CCOc2ccc(CN3CCCCCC3)cc2)CC(C)C(=O)C=CC(C)=CC1COC1OC(C)C(O)C(OC)C1OC (centres unmarked) | 1 |

---

Tested on: Staphylococcus aureus
Assay: MIC, broth-dilution microtiter test, Staphylococcus aureus
Type: cell-based

| COMPOUND | MIC / µg/mL |
| --- | --- |
| CCC1OC(=O)CC(O)C(C)C(OC2OC(C)C(OC3CC(C)(O)C(O)C(C)O3)C(N(C)C)C2O)C(CCI)CC(C)C(=O)C=CC(C)=CC1COC1OC(C)C(O)C(O)C1OC (centres unmarked) | 12.5 |
| CCC1OC(=O)CC(O)C(C)C(OC2OC(C)C(O)C(N(C)C)C2O)C(CC2Nc3ccccc3S2)CC(C)C(=O)C=CC(C)=CC1COC1OC(C)C(O)C(OC)C1OC (centres unmarked) | 0.78 |
| CCC1OC(=O)CC(O)C(C)C(OC2OC(C)C(O)C(N(C)C)C2O)C(CCI)CC(C)C(=O)C=CC(C)=CC1COC1OC(C)C(O)C(O)C1OC (centres unmarked) | 0.78 |
| CCC1OC(=O)CC(O)C(C)C(OC2OC(C)C(OC3CC(C)(O)C(O)C(C)O3)C(N(C)C)C2O)C(CCOC(=O)c2nn(CC)c3cc4c(cc3c2=O)OCO4)CC(C)C(=O)C=CC(C)=CC1COC1OC(C)C(O)C(OC)C1OC (centres unmarked) | 12.5 |
| CCOC(=O)NN(CCC1CC(C)C(=O)C=CC(C)=CC(COC2OC(C)C(O)C(OC)C2OC)C(CC)OC(=O)CC(O)C(C)C1OC1OC(C)C(OC2CC(C)(O)C(O)C(C)O2)C(N(C)C)C1O)C(=O)OCC (centres unmarked) | 6.25 |

---

Tested on: Staphylococcus aureus V41
Test: MIC, standard agar-dilution assay, Staphylococcus aureus V41
Type: cell-based
Conditions: Staphylococcus aureus V41; penicillin-resistant strain; agar dilution
METRIC: MIC (mg/L)

| MOLECULE | DATA_VALUE |
| --- | --- |
| CCC1OC(=O)CC(O)C(C)C(OC2OC(C)C(O)C(N(C)C)C2O)C(CCN=[N+]=[N-])CC(C)C(=O)C=CC(C)=CC1COC1OC(C)C(O)C(OC)C1OC (stereo not shown) | 0.12 |
| CCC1OC(=O)CC(O)C(C)C(OC2OC(C)C(O)C(N(C)C)C2O)C(CCOc2ccccc2)CC(C)C(=O)C=CC(C)=CC1COC1OC(C)C(O)C(O)C1OC (stereo not shown) | 0.25 |
| CC(=O)O.CC(=O)O.CCC1OC(=O)CC(O)C(C)C(OC2OC(C)C(O)C(N(C)C)C2O)C(CCN)CC(C)C(=O)C=CC(C)=CC1COC1OC(C)C(O)C(OC)C1OC (stereo not shown) [Compound 51b, 20-DH-DO-20-Aminodesmycosin diacetate] | 4 |
| CCC1OC(=O)CC(O)C(C)C(OC2OC(C)C(O)C(N(C)C)C2O)C(CCOc2cccc(Oc3ccccc3)c2)CC(C)C(=O)C=CC(C)=CC1COC1OC(C)C(O)C(OC)C1OC (stereo not shown) | 0.5 |
